These entries and their values trace back to ChEMBL document CHEMBL1641546.

- EXPERIMENTAL_PROTOCOL: Clearance in rat
- Type: ADME, organism-based
- RUN_CONDITIONS: in vivo
REPORTED_ENDPOINT: clearance
Put your answer as a value accompanied by its unit after it.

Data request: Param item = "C/C(=C\c1cc(F)c(OC[C@H](F)C2CC2)cc1F)C(=O)N[C@@H]1[C@H](O)[C@@H](O)[C@H]2OCO[C@H]2[C@@H]1O" ; retrieve measured clearance.
Data returned: 10.5 mL/min/kg

---

- EXPERIMENTAL_PROTOCOL: Clearance in dog
- Assay type: ADME, organism-based, Canis lupus familiaris
- RUN_CONDITIONS: in vivo
REPORTED_ENDPOINT: clearance (mL/min/kg)
Please respond with the number in mL/min/kg and leave the unit unwritten.

Data request: Find the recorded clearance belonging to "C/C(=C\c1cc(F)c(OC[C@H](F)C2CC2)cc1F)C(=O)N[C@@H]1[C@H](O)[C@@H](O)[C@H]2OCO[C@H]2[C@@H]1O" and report it.
Data returned: 5.4

---

- EXPERIMENTAL_PROTOCOL: Half life in rat
- Format: ADME, organism-based
- RUN_CONDITIONS: in vivo
REPORTED_ENDPOINT: half-life (h)
Provide only the numeric value, understood in h.

Data request: Request the reported half-life associated with "C/C(=C\c1cc(F)c(OC[C@H](F)C2CC2)cc1F)C(=O)N[C@@H]1[C@H](O)[C@@H](O)[C@H]2OCO[C@H]2[C@@H]1O"
Data returned: 1.3

---

- EXPERIMENTAL_PROTOCOL: Volume of distribution at steady state in monkey
- Format: ADME, organism-based, Macaca mulatta
- RUN_CONDITIONS: rhesus monkey, in vivo; read-out: Vdss
REPORTED_ENDPOINT: Vd (L/kg)
Reply with just the number (in L/kg).

Data request: Would you kindly share the measured Vd for "C/C(=C\c1cc(F)c(OC[C@H](F)C2CC2)cc1F)C(=O)N[C@@H]1[C@H](O)[C@@H](O)[C@H]2OCO[C@H]2[C@@H]1O" ?
Data returned: 0.59

---

- Tested on: Enterococcus faecium
- EXPERIMENTAL_PROTOCOL: Antibacterial activity against Enterococcus faecium 1022
- Assay type: functional
REPORTED_ENDPOINT: MIC (µg/mL)
Expressed in µg/mL, but write only the number.

C/C(=C\c1cc(F)c(OCCC(C)(C)F)cc1F)C(=O)N[C@@H]1[C@H](O)[C@@H](O)[C@H]2OCO[C@H]2[C@@H]1O    50
C/C(=C\c1cc(F)c(OCC(F)C2CC2)cc1F)C(=O)N[C@@H]1[C@H](O)[C@@H](O)[C@H]2OCO[C@H]2[C@@H]1O (stereo partly drawn)    1.6

Turning now to a further record.
Data request: Need MIC of "C/C(=C\c1cc(F)c(OCCCF)cc1F)C(=O)N[C@@H]1[C@H](O)[C@@H](O)[C@H]2OCO[C@H]2[C@@H]1O" , thanks.
Data returned: 0.78
